Please go through the items and note down their remaining at 2 h.
Experiment: Stability in mouse plasma assessed as compound remaining after 2 hrs
Type: ADME, cell-free
Settings: read-out: Stability
Numbers only, in %.

COCCn1c(=O)c2cc(NC(=O)Nc3cccc(C(C)=O)c3)ccc2n(CCN2CCCC2)c1=O: 50.3
COCCn1cnc2ccc(NC(=O)Nc3cccc(OC)c3)cc2c1=O: 84.5

Take each entry in turn and give its remaining at 2 h.
1. COCCn1c(=O)[nH]c2ccc(NC(=O)Nc3cccc(C(C)=O)c3)cc2c1=O
2. CC(C)[N+](C)(CCOC(=O)C1c2ccccc2Oc2ccccc21)C(C)C

## Output
[68.4, 0]
